# study_target: D2 dopamine receptors (transfected HEK cells) (Homo sapiens)
# Sequence (P14416 whole entry): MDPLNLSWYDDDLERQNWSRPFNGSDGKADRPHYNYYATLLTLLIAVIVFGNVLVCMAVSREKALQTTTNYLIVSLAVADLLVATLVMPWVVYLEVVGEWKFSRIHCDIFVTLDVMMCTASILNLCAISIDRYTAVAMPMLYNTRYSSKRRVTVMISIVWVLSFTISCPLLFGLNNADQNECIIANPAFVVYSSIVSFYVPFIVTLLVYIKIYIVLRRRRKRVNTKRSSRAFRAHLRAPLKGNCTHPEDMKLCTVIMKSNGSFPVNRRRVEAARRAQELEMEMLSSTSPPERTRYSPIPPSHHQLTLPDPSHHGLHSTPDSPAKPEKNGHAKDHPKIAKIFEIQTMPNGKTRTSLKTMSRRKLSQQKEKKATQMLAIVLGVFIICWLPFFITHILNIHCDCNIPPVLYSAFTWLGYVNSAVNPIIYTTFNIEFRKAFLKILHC
# procedure_summary: Whole cell forskolin-dependent adenylyl cyclase inhibition assay, D2
# Assay type: cell-based
# conditions: intrinsic activity
Listed here: items and their measured %IA D2.
outcome_measure: %IA D2 (%)

1) COc1ccccc1N1CCN(CCCCNC(=O)c2ccc(CCF)cc2)CC1    35
2) COc1ccccc1N1CCN(CCCCNC(=O)c2ccc(N(C)C)cc2)CC1    34
3) CN(C)c1ccc(C(=O)NCCCCN2CCN(c3ccccc3OCCF)CC2)cc1    66.3
4) O=C(NCCCCN1CCN(c2ccccc2OCCF)CC1)c1ccc(-c2ccsc2)cc1    29.3
